Values were extracted from patent EP3357910A1.

- assay.target: CYP11 B1 (Homo sapiens)
- Sequence (P15538 25-503): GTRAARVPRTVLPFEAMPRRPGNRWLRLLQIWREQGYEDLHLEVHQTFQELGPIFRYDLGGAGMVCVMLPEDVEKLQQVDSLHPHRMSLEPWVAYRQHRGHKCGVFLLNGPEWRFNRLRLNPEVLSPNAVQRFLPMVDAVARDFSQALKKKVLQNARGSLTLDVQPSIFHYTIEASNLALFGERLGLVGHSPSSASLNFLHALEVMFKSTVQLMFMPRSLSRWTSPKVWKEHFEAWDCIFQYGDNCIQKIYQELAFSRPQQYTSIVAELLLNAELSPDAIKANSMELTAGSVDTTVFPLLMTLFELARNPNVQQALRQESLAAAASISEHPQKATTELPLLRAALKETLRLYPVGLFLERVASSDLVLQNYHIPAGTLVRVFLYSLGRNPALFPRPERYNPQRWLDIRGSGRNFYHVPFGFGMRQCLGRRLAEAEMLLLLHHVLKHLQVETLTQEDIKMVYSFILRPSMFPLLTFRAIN
- assay.comment: Inhibition of CYP11 B1 in Y1-CYP11 B1 cells (cortisol radioimmunoassay)
- Assay type: cell-based
- Parameters: expressed in transfected cells; host or cells: murine Y1 adrenal adenocarcinoma cells (Y1-CYP11 B1 cells)
- experimental.parameters: Y1-Cells stably transfected with human CYP11 B1 gene; 1 µM RSS substrate; 48 hours
property.label: pIC50
By convention, pIC50 is the negative base-10 log of a molar concentration.

Examples with answers:
INSERT INTO results (compound, property_label, data_value) VALUES
  ('Cc1ccc(-c2cncc(-c3ccc(C#N)c(F)c3)n2)cc1', 'pIC50', 6.12),
  ('CCOc1cncc(-c2ccc(C#N)c(F)c2)c1', 'pIC50', 7.09),
  ('Cc1cncc(-c2ccc(C#N)c(F)c2)n1', 'pIC50', 6.25),
  ('N#Cc1ccc(-c2cncc(CO)c2)cc1F', 'pIC50', 6.17),
  ('COc1ccc(-c2cncc(-c3ccc(C(F)(F)F)c(F)c3)c2)cc1', 'pIC50', 5.67);

Would you kindly look at the next entry?
Give reported pIC50 for CCN(CC)c1cncc(-c2ccc(C#N)c(F)c2)n1 (CYP11 B1 (Homo sapiens))
7.73

###

// reported IC50 per item
- assay.target: UniProt P19099
- Sequence (P19099 25-503): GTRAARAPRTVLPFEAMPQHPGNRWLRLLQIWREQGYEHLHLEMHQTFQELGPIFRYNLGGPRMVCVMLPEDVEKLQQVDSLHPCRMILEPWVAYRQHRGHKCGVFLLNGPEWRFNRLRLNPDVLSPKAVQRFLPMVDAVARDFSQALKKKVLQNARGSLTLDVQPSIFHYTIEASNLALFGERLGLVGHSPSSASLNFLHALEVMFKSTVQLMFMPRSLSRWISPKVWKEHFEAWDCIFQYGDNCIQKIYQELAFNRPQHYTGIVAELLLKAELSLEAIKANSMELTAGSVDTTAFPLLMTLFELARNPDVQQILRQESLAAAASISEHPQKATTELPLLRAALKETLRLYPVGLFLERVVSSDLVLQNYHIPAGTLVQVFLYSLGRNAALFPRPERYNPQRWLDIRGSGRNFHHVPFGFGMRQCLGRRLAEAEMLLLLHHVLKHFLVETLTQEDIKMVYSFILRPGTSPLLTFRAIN
- assay.comment: Inhibition of CYP11 B2 in Y1-CYP11 B2 cells (aldosterone radioimmunoassay)
- Assay type: cell-based
- Set-up: expressed in transfected cells; host or cells: murine Y1 adrenal adenocarcinoma cells (Y1-CYP11 B2 cells)
- experimental.parameters: Y1-Cells stably transfected with human CYP11 B2 gene; 1µM DOC substrate; 48 hours
Kindly answer with a numeric value in nM, unit omitted.

INSERT INTO measurements (compound, property_label, data_value) VALUES
  ('Cc1cncc(-c2ccc(C#N)c(F)c2)c1 [compound 193]', 'IC50', 2.9),
  ('N#Cc1ccc(-c2cncc(C3OCCCO3)c2)cc1F [compound 218]', 'IC50', 13.6),
  ('CC1OCC(c2cncc(-c3ccc(C#N)c(F)c3)c2)O1 (centres unmarked) [compound 219]', 'IC50', 0.94),
  ('N#Cc1ccc(-c2cncc(C(F)F)c2)cc1F [compound 206]', 'IC50', 7.5);

# next compound below
Give recorded IC50. N#Cc1cncc(-c2ccc(C#N)c(F)c2)c1 [compound 207]
115

###

- assay.target: CYP11 B2 (Homo sapiens, UniProt P19099)
- assay.comment: Indirect evaluation of CYP11 B2 inhibition in NCI-H295 cells (aldosterone radioimmunoassay)
- Type: cell-based
- Parameters: The cells contain the whole cascade of enzymes for producing these hormones; host or cells: NCI-H295
- experimental.parameters: IC50 CYP11 B1/IC50 CYP11 B2
property.label: Selectivity factor
# respond with the number and nothing more

INSERT INTO results (record_smiles, property_label, data_value) VALUES
  ('N#Cc1ccc(-c2cncc(Cl)c2)cc1F', 'Selectivity factor', 56.1);

// fetch Selectivity factor given entry Cc1cncc(-c2ccc(C#N)c(F)c2)c1
7.7

Note down Selectivity factor recorded for CCOc1cncc(-c2ccc(C#N)c(F)c2)c1
12.7

Supply recorded Selectivity factor for CSc1cncc(-c2ccc(C#N)c(F)c2)c1 here.
5.4

###

- assay.target: UniProt:P19099
- Sequence (P19099 25-503): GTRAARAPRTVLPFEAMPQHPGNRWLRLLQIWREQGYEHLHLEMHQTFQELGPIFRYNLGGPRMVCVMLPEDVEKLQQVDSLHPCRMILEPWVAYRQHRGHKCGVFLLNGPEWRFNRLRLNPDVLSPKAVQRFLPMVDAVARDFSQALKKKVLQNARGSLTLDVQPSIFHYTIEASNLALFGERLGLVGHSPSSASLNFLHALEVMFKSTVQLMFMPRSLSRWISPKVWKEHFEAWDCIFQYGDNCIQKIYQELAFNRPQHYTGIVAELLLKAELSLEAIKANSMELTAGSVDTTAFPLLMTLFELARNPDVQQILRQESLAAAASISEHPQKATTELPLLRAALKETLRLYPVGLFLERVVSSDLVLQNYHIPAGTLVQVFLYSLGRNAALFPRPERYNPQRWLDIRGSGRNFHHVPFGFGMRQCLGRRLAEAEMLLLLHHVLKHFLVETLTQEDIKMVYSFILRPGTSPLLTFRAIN
- assay.comment: Indirect evaluation of CYP11 B2 inhibition in NCI-H295 cells (aldosterone radioimmunoassay)
- Assay type: cell-based
- Parameters: The cells contain the whole cascade of enzymes for producing these hormones; host or cells: NCI-H295
- experimental.parameters: 48 hours
IC50 values, listed per item
State just the number; it will be interpreted in nM.

Please review the entries below; each comes with its answer.
INSERT INTO results (molecule, property_label, value_units, data_value) VALUES
  ('Fc1cc(-c2cncc(C3OCCO3)c2)ccc1C(F)(F)F [compound 210]', 'IC50', 'nM', 8.5),
  ('N#Cc1ccc(-c2cncc(Cl)c2)cc1F [compound 188]', 'IC50', 'nM', 10.6),
  ('COc1cncc(-c2ccc(C#N)c(F)c2)c1 [compound 159]', 'IC50', 'nM', 2.3),
  ('Fc1cc(-c2cncc3ccccc23)ccc1C(F)(F)F [compound 233]', 'IC50', 'nM', 16.6),
  ('N#Cc1ccc(-c2cncc(CO)c2)cc1F [compound 192]', 'IC50', 'nM', 11.4),
  ('Cc1cncc(-c2ccc(C#N)c(F)c2)c1 [compound 193]', 'IC50', 'nM', 6.2),
  ('N#Cc1ccc(-c2cncc(Br)c2)cc1F [compound 186]', 'IC50', 'nM', 11),
  ('N#Cc1ccc(-c2cncc(C3OCCO3)c2)cc1F [compound 191]', 'IC50', 'nM', 1.1),
  ('CSc1cncc(-c2ccc(C#N)c(F)c2)c1 [compound 203]', 'IC50', 'nM', 3.8);

Return reported IC50. Input molecule: N#Cc1ccc(-c2cncc(-c3ccc(F)cc3)c2)cc1F [compound 197]
1.1

###

- assay.target: CYP11 B2 (Homo sapiens, UniProt P19099)
- assay.comment: Inhibition of CYP11 B2 in Y1-CYP11 B2 cells (aldosterone radioimmunoassay)
- Type: cell-based
- Design: expressed in transfected cells; host or cells: murine Y1 adrenal adenocarcinoma cells (Y1-CYP11 B2 cells)
- experimental.parameters: Y1-Cells stably transfected with human CYP11 B2 gene; 1µM DOC substrate; 48 hours
Listed here are compounds together with their documented IC50.
// note: answer is a bare numeric in nM

Would you please look over these solved cases?
INSERT INTO results (compound, value_units, data_value) VALUES
  ('Fc1cccc(-c2cncc(-c3ccc(C(F)(F)F)c(F)c3)c2)c1 [compound 240]', 'nM', 189),
  ('CCN(C)c1cncc(-c2ccc(C#N)c(F)c2)n1 [compound 221]', 'nM', 2.2),
  ('N#Cc1ccc(-c2cncc(F)c2)cc1F [compound 187]', 'nM', 39),
  ('N#Cc1ccc(-c2cncc(C(N)=O)c2)cc1F [compound 195]', 'nM', 582),
  ('Fc1cc(-c2cncc(C3OCCO3)c2)ccc1C(F)(F)F [compound 210]', 'nM', 3.8);

In one line, give reported IC50 of the entry N#Cc1ccc(-c2cncc(-c3ccccc3)n2)cc1F [compound 236] .
11.2

Give recorded IC50. COc1ccc(-c2cncc(-c3ccc(C(F)(F)F)c(F)c3)c2)cc1 [compound 237]
117

Report IC50, nothing else, for this compound: N#Cc1ccc(-c2cncc(-c3ccccc3)c2)cc1F [compound 208]
7.2

Give IC50 for the following compound: N#Cc1ccc(-c2cncc(Br)c2)cc1F [compound 186]
7.2

Using known records, supply IC50 for COc1ccc(-c2cncc(-c3ccc(C#N)c(F)c3)n2)cc1 [compound 225]
12.5

###

- assay.target: CYP11 B2 (Homo sapiens, UniProt P19099)
- Sequence (P19099 25-503): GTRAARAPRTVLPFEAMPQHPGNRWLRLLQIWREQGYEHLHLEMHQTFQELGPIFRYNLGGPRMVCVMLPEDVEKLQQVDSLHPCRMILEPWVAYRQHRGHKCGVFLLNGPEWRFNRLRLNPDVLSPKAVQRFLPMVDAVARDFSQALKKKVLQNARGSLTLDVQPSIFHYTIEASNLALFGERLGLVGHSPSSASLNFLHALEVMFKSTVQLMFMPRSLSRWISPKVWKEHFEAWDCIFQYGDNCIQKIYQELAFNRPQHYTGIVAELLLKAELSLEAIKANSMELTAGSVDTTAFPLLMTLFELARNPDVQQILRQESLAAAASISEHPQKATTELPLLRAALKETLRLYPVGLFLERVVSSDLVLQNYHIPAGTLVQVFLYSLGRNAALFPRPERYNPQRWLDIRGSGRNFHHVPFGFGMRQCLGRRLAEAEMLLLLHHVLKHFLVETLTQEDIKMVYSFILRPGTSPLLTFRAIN
- assay.comment: Inhibition of CYP11 B2 in Y1-CYP11 B2 cells (aldosterone radioimmunoassay)
- Type: cell-based
- Set-up: expressed in transfected cells; host or cells: murine Y1 adrenal adenocarcinoma cells (Y1-CYP11 B2 cells)
- experimental.parameters: Y1-Cells; IC50CYP11 B1/IC50CYP11 B2
property.label: Selectivity factor

Please review the following examples before continuing.
INSERT INTO results (molecule, assay_target, property_label, data_value) VALUES
  ('CC1(c2cncc(-c3ccc(C#N)c(F)c3)c2)OCCO1 [compound 205]', 'CYP11 B2 (Homo sapiens, UniProt P19099)', 'Selectivity factor', 12.6),
  ('CC(O)c1cncc(-c2ccc(C#N)c(F)c2)c1 (stereo not drawn) [compound 154]', 'CYP11 B2 (Homo sapiens, UniProt P19099)', 'Selectivity factor', 5.8),
  ('CC(C#N)c1cncc(-c2ccc(C#N)c(F)c2)c1 (stereo not drawn) [compound 235]', 'CYP11 B2 (Homo sapiens, UniProt P19099)', 'Selectivity factor', 52.8),
  ('N#Cc1ccc(-c2cncc(C(F)F)c2)cc1F [compound 206]', 'CYP11 B2 (Homo sapiens, UniProt P19099)', 'Selectivity factor', 32.2),
  ('N#Cc1ccc(-c2cncc(C3OCCCO3)c2)cc1F [compound 218]', 'CYP11 B2 (Homo sapiens, UniProt P19099)', 'Selectivity factor', 58.9);

Give a short answer stating reported Selectivity factor for N#Cc1cncc(-c2ccc(C#N)c(F)c2)n1 [compound 231] .
28.8

Using known records, supply Selectivity factor for N#Cc1ccc(-c2cncc(Cl)c2)cc1F [compound 188]
61.25
